- Tested on: Sprague-Dawley rats
- PROTOCOL DETAILS: PD studies: blood glucose after subcutaneous dosing
- Type: in vivo
- MEASUREMENT SETUP: sc, dose 30 nmol/kg, time 4 days
OUTCOME MEASURE: Average blood glucose (mM)

>>> value_observed("A14E, A21G, A22(GQAPGQAPGQEP)6-GQAP, A98K^, A99P, B29R, desB30 human insulin/(227A, 234A, 235K, 297E, 315Q, 384Q, des447 hIgG4-Fc(228-447))4-[bis[2-[(2-acetyl)amino]ethyl]amino]-4-oxo-butanoyl Conjugate [Example 5.19]")
6.104

* * *

Consider the following substances and their measured Average blood glucose readings.
- Test system: Sprague-Dawley rats
- PROTOCOL DETAILS: PD studies: blood glucose after subcutaneous dosing
- Format: in vivo
- MEASUREMENT SETUP: sc, dose 30 nmol/kg, time 6 days
OUTCOME MEASURE: Average blood glucose (mM)

>>> value_observed("A14E, A21G, A22(GQAPGQAPGQEP)6-GQAP, A98K^, A99P, B29R, desB30 human insulin/(227A, 234A, 235K, 297E, 315Q, 384Q, des447 hIgG4-Fc(228-447))4-[bis[2-[(2-acetyl)amino]ethyl]amino]-4-oxo-butanoyl Conjugate [Example 5.19]")
5.9
>>> value_observed("A14E, A21G, A22(GQAPGQAPGQEP)6-GQAP, A98K^, A99P, B3Q, B25H, B29R, desB30 human insulin/(227A, 234A, 235K hIgG4-Fc(228-447))4-[bis[2-[(2-acetyl)amino]ethyl]amino]-4-oxo-butanoyl Conjugate [Example 5.5]")
6.016
>>> value_observed("A14E, A21G, A22(GQAPGQAPGQEP)6-GQAP, A98K^, A99P, B3Q, B25H, B29R, desB30 human insulin/(227A, 234A, 235K, 297E, 315Q, 384Q, des447 hIgG4-Fc(228-447))4-[bis[2-[(2-acetyl)amino]ethyl]carbamoylamino]butanoyl Conjugate [Example 5.24]")
5.824
